Where do these numbers come from? They come from PubChem BioAssay.

The following compounds are listed with their measured z-score values.
- experimentalDetails: budding yeast growth modifiers under rapamycin – strain BY4716, OD600, 96 h, primary screen (AID 1091); further: test concentration not given here
- testParameters: S. cerevisiae BY4716 + rapamycin, higher = more signal, called active from +8 up or from −8 down
valueType: z-score

{"compound": "CC1CC/C=C\\[C@H]2OC34C=CCN(C(C)(C)C)C(=O)[C@H]3N(CCCCCO)C(=O)[C@@H]4C2C(=O)O1 (some centres undefined)", "numericReadout": -0.615}
{"compound": "CN(C)C(=O)[C@]1(Cc2ccccc2CN=[N+]=[N-])N=C(c2ccc(OCCCO)cc2)O[C@@H]1c1ccccc1", "numericReadout": 20.8}
{"compound": "[N-]=[N+]=Nc1ccccc1C[C@@]1(C(=O)NCCN2CCOCC2)N=C(c2ccc(OCCCO)cc2)O[C@@H]1c1ccccc1N=[N+]=[N-]", "numericReadout": -0.321}
{"compound": "COC(=O)[C@@]1(Cc2ccc(F)cc2)[C@H]2c3cc(C(=O)N4CCCC4)n(CCc4c[nH]c5ccccc45)c3C[C@H]2CN1C(=O)c1ccccc1", "numericReadout": 7.25}

---

- Tested on: wheat germ agglutinin (Triticum aestivum), Alexa647-labelled
- experimentalDetails: Alexa647-WGA lectin binding to printed small molecules – biochemical, small-molecule microarray, 635/667 nm fluorescence, artefact control for SMM control-protein annotation, profiling panel (AID 1140);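 further: score merges 667 nm feature emission with signal to noise over triplicate slides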
- testParameters: WGA-A647 binding, 635 nm fluorescence, higher = more signal
Item-by-item account of composite z-score
valueType: composite z-score

{"molecule": "CC(C)[Si](C#CCCCC#N)(O[C@H](c1ccccc1)c1cn(Cc2ccccc2)nn1)C(C)C", "valueType": "composite z-score", "numericReadout": 0.235}
{"molecule": "C=CCNC(=O)[C@H]1[C@@H]2C(=O)O[C@@H](c3ccccc3)[C@@H](c3ccccc3)N2[C@@H](c2ccccc2OCCO)[C@]12C(=O)N(C(=O)OCCOC)c1ccc(C#CC3(O)CCCCCC3)cc12", "valueType": "composite z-score", "numericReadout": 0.763}
{"molecule": "CCOC(=O)C1=C[C@@H](C(C)C)N(S(=O)(=O)c2ccc(C)cc2)[C@H]1c1ccc(C(F)(F)F)cc1", "valueType": "composite z-score", "numericReadout": 0.909}
{"molecule": "O=C1C[C@]2(c3ccc([N+](=O)[O-])cc3)C(=O)N(C3CC3)c3cc(CO)ccc3[C@H]2N1CC12CC3CC(CC(C3)C1)C2", "valueType": "composite z-score", "numericReadout": -0.456}
{"molecule": "COC(=O)[C@@H]1N=C(c2ccc(OCCCO)cc2)O[C@@H]1c1ccccc1", "valueType": "composite z-score", "numericReadout": -0.0306}
{"molecule": "O=C1OCCC=C[C@H]2OC34C=CCN(Cn5nnc6ccccc65)C(=O)[C@H]3N(CCCO)C(=O)[C@@H]4C12 (stereo partly drawn)", "valueType": "composite z-score", "numericReadout": -0.0152}
{"molecule": "Cc1ccc(F)cc1S(=O)(=O)N[C@@H]1CCN(Cc2ccc(Br)cc2)C1", "valueType": "composite z-score", "numericReadout": 0.124}
{"molecule": "CC(C)c1ccc(NN2C(C(O)c3ccc(C#N)cc3)C=CC3C(=O)N(c4ccccc4)C(=O)C32)cc1 (stereo not drawn)", "valueType": "composite z-score", "numericReadout": 0.949}
